Molecular target: HCV polymerase (NS5B) type 1a (Hepatitis C virus genotype 1a)
Construct: made in house; host or cells: Escherichia coli (by the 'similar method' of the 1b enzyme)
Assay: Assay of enzyme (HCV polymerase) inhibitory activity, type 1a enzyme
Assay type: biochemical, HCV type 1a (cloned from the blood of patients)
Settings: HCV polymerase inhibitory activity (IC50), 1a, type 1a enzyme 1.5 μg/ml, 25° C., 60 min
Experimental: The evaluation of the HCV polymerase inhibitory activity of the compound of the present invention is explained in the following. This polymerase is an enzyme coded for by the non-structural protein region called NS5B on the genome RNA of HCV. i) Preparation of Enzyme (HCV Polymerase) […] The HCV polymerase inhibitory activity (IC50) of the compound of the present invention was calculated from the values of radioactivity of the enzyme reaction with and without the test substance. […]
pIC50: −log10 of the molar value.

compound | pIC50
CCC(F)(F)c1ccc(CNC(=O)[C@H]2CN(C(=O)Nc3nnc(CO)s3)CCN2S(=O)(=O)c2ccc(OC(F)(F)F)cc2)cc1 | 6.00 to 7.00
CC(=O)N1CCN(S(=O)(=O)c2ccc(C(C)C)cc2)C(C(=O)NCCc2c[nH]c3ccccc23)C1 (stereo not shown) | < 6.00
CC(=O)N1CCN(S(=O)(=O)c2ccc(OC(F)(F)F)c(C(=O)O)c2)[C@@H](C(=O)NCc2ccc(C(C)C)cc2)C1 | 6.00 to 7.00
CCCc1ccc(CNC(=O)[C@H]2CN(c3nc(C(=O)O)c(COC)s3)CCN2S(=O)(=O)c2ccc(OC(F)(F)F)cc2)cc1 | 6.00 to 7.00
CC(=O)N1CCN(S(=O)(=O)c2cccc(-c3ccccc3)c2)C(C(=O)NCc2ccc(C(F)(F)F)cc2)C1 (stereo not shown) | < 6.00
CCC(F)(F)c1ccc(CNC(=O)[C@H]2CN(C(=O)Nc3nccs3)CCN2S(=O)(=O)c2ccc(OC(F)(F)F)cc2)cc1 | 6.00 to 7.00
CC(=O)N1CCN(S(=O)(=O)c2cc(Cl)cc(Cl)c2)C(C(=O)NCc2ccc(C(F)(F)F)cc2)C1 (stereo not shown) | < 6.00

* * *

Biological target: HCV polymerase (NS5B) type 1a (Hepatitis C virus genotype 1a)
Construct: made in house; host or cells: Escherichia coli (by the 'similar method' of the 1b enzyme)
Assay: Assay of enzyme (HCV polymerase) inhibitory activity, type 1a enzyme
Assay type: biochemical, HCV type 1a (cloned from the blood of patients)
Conditions: HCV polymerase inhibitory activity (IC50), 1a, type 1a enzyme 1.5 μg/ml, 25° C., 60 min
Method: The evaluation of the HCV polymerase inhibitory activity of the compound of the present invention is explained in the following. This polymerase is an enzyme coded for by the non-structural protein region called NS5B on the genome RNA of HCV. i) Preparation of Enzyme (HCV Polymerase) […] The HCV polymerase inhibitory activity (IC50) of the compound of the present invention was calculated from the values of radioactivity of the enzyme reaction with and without the test substance. […]
Structures can show the parent of a compound that is named as a salt.
# Lookup of reported IC50 keyed by entry

compound | subject of test | IC50
CC(=O)N1CCN(S(=O)(=O)c2ccc(C(C)C)cc2)C(C(=O)NCc2cccc(N(C)C)c2)C1 (centres unmarked) | HCV polymerase (NS5B) type 1a (Hepatitis C virus genotype 1a) | > 1000 nM
CC(C)c1ccc(CNC(=O)[C@H]2CN(c3nc(N)n[nH]3)CCN2S(=O)(=O)c2ccc(C(F)(F)F)cc2)cc1 | HCV polymerase (NS5B) type 1a (Hepatitis C virus genotype 1a) | > 1000 nM
CC(C)c1ccc(CNC(=O)[C@H]2CN(c3ccc(C(=O)O)cn3)CCN2S(=O)(=O)c2ccc(C(F)(F)F)cc2)cc1 [Example 327, trifluoroacetate] | HCV polymerase (NS5B) type 1a (Hepatitis C virus genotype 1a) | < 100 nM
CCC(F)(F)c1ccc(CNC(=O)[C@H]2CN(C(=O)C(C)C)CCN2S(=O)(=O)c2ccc(OC(F)(F)F)cc2)cc1 | HCV polymerase (NS5B) type 1a (Hepatitis C virus genotype 1a) | > 1000 nM
CCC(F)(F)c1ccc(CNC(=O)[C@H]2CN(c3cnc(C(=O)O)cn3)CCN2S(=O)(=O)c2ccc(OC(F)(F)F)cc2)cc1 | HCV polymerase (NS5B) type 1a (Hepatitis C virus genotype 1a) | < 100 nM
CC(C)c1ccc(CNC(=O)[C@H]2CN(c3ncc(C(=O)O)s3)CCN2S(=O)(=O)c2ccc(OC(F)(F)F)cc2)cc1 | HCV polymerase (NS5B) type 1a (Hepatitis C virus genotype 1a) | < 100 nM
CC(C)c1ccc(CNC(=O)[C@H]2CN(c3ncc(C(=O)O)s3)CCN2S(=O)(=O)c2ccc(C(F)(F)F)cc2)cc1 | HCV polymerase (NS5B) type 1a (Hepatitis C virus genotype 1a) | 100 to 1000 nM
COc1ccc(S(=O)(=O)N2CCN(C(C)=O)C[C@@H]2C(=O)NCc2ccc(C(C)C)cc2)cc1 | HCV polymerase (NS5B) type 1a (Hepatitis C virus genotype 1a) | 100 to 1000 nM
CC(C)c1ccc(CNC(=O)[C@H]2CN(C3=NCCS3)CCN2S(=O)(=O)c2ccc(C(F)(F)F)cc2)cc1 | HCV polymerase (NS5B) type 1a (Hepatitis C virus genotype 1a) | 100 to 1000 nM
CC(C)c1ccc(S(=O)(=O)N2CCN(C(=O)N(C)C)CC2C(=O)NCc2ccc(C(F)(F)F)cc2)cc1 (centres unmarked) | HCV polymerase (NS5B) type 1a (Hepatitis C virus genotype 1a) | > 1000 nM
COC(=O)c1cc(S(=O)(=O)N2CCN(C(C)=O)C[C@@H]2C(=O)NCc2ccc(C(C)C)cc2)ccc1OC | HCV polymerase (NS5B) type 1a (Hepatitis C virus genotype 1a) | > 1000 nM
CCCc1ccc(CNC(=O)[C@H]2CN(C(C)=O)CCN2S(=O)(=O)c2ccc(OC(F)(F)F)cc2)cc1N | HCV polymerase (NS5B) type 1a (Hepatitis C virus genotype 1a) | > 1000 nM
CN(C)c1ccc(CNC(=O)C2CN(C(=O)CN3CCCCC3)CCN2S(=O)(=O)c2ccc(I)cc2)cc1 (centres unmarked) | HCV polymerase (NS5B) type 1a (Hepatitis C virus genotype 1a) | > 1000 nM
CCC(F)(F)c1ccc(CNC(=O)[C@H]2CN(C(=O)Nc3nc(C)ns3)CCN2S(=O)(=O)c2ccc(OC(F)(F)F)cc2)cc1 | HCV polymerase (NS5B) type 1a (Hepatitis C virus genotype 1a) | 100 to 1000 nM

Where do the numbers come from? From patent US8017612B2.
